Test system: SF-268 CNS
Assay: NCI tumour cell line growth inhibition, 48 h
propertyLabel: TGI

{"compound": "CCOC(=O)N(c1ccccc1)N(CC)C(=O)/C(C)=N/Nc1ccc([N+](=O)[O-])cc1", "TGI": "34.1 µM"}
{"compound": "Cc1ccc(S(=O)(=O)NC(CN)C(=O)O)cc1 (configuration not stated)", "TGI": "> 100 µM"}
{"compound": "CC(=O)N(O)c1ccc(-c2nc3ccccc3s2)cc1", "TGI": "> 100 µM"}
{"compound": "CCOc1cc(NC(C)=O)ccc1C(=O)NN1C(=O)CSC1c1ccccc1 (configuration not stated)", "TGI": "> 100 µM"}
{"compound": "Nc1ncnc2c1ncn2C1OC(CO)C(O)C1N (configuration not stated)", "TGI": "> 100 µM"}

Lookup: What value of TGI has been reported for the following compound? CCOC(=O)Cc1nc2c(N)ncnc2n1C1OC(COC(C)=O)C(OC(C)=O)C1OC(C)=O (configuration not stated)
Found: > 100 µM

Lookup: Record request: TGI value, item O=C(CCc1ccccc1)ON1C(=S)C(c2ccccc2)(c2ccccc2)N=C1Sc1ccccc1
Found: > 100 µM

----------
Listing of recorded GI50 by entry.
Test system: NCI/ADR-RES ovarian
Experiment: NCI tumour cell line growth inhibition, 48 h

{"compound": "COC(=O)[C@H]1CCCN1C(=O)[C@H]1CCCN1C(=O)[C@H](Cc1c[nH]c2ccccc12)NC(=S)Nc1cc(C(F)(F)F)cc(C(F)(F)F)c1", "testTarget": "NCI/ADR-RES ovarian", "GI50": "> 100 µM"}
{"compound": "O=C1NC(=NCCCc2ccccc2)S/C1=C\\c1ccc2ncccc2c1", "testTarget": "NCI/ADR-RES ovarian", "GI50": "6.5 µM"}

Next, consider the following compound.
Lookup: Return reported GI50; argument: O=C1Cc2cc(C(=O)NC3C[C@H]4CC[C@@H](C3)N4S(=O)(=O)CC3CCN(CCCC(F)(F)F)CC3)c(Cl)cc2N1 (stereo partly drawn)
Found: > 100 µM

----------
TGI: recorded values
Test system: EKVX NSCLC
Assay: NCI tumour cell line growth inhibition, 48 h

{"compound": "CC(=O)N1CCn2c1nc1cc(Cl)ccc12", "TGI": "> 100 µM"}
{"compound": "Cc1nc2c(=S)n(C)ncc2[nH]1", "TGI": "> 100 µM"}
{"compound": "O=C(NNc1ccccc1)/C(=C/c1ccc2c(c1)OCO2)NC(=O)c1ccccc1", "TGI": "> 100 µM"}

The record that follows has no TGI shown yet.
Lookup: Request body: readout TGI, system EKVX NSCLC, query CN1C(=O)C2(c3ccccc31)N(c1ccc(Cl)cc1)C(=O)C2(c1ccccc1)c1ccccc1 (stereo not drawn) . Return the value.
Found: > 100 µM

----------
System: HOP-18 NSCLC
Assay: NCI tumour cell line growth inhibition, 48 h
propertyLabel: TGI

Known TGI results, listed for orientation:
{"compound": "O=C1C(CN2CCOCC2)CCCC1CN1CCOCC1 (stereo unspecified)", "TGI": "3.2 µM"}
{"compound": "CN1c2ccccc2N(C(=O)c2ccccc2)C(CC(=O)O)c2cccn21 (stereo unspecified)", "TGI": "> 100 µM"}
{"compound": "Nc1c(Cl)ncnc1NCCCNc1ncnc(Cl)c1N", "TGI": "> 100 µM"}
{"compound": "CC1=C(C(=O)Nc2ccc(Cl)c(C(=O)OC(C)C)c2)SCCO1", "TGI": "> 100 µM"}
{"compound": "Cn1nc(-c2ccccc2)c2c(/C=C/c3ccccc3)onc2c1=O", "TGI": "> 100 µM"}

Shifting focus to the compound that follows.
Lookup: Report TGI for ClC(Cl)[Si]12OCCN(CCO1)CCO2 please.
Found: > 100 µM
